test system: NCI-H23 lung; assay: NCI-60 one-dose screen, 48 h (100 = growth as untreated, 0 = no growth, -100 = all killed); conditions: 10 µM unless noted
Compounds without any hit were thinned out: in the full panel of roughly 83,000, 20% have a hit.
Provide the recorded growth for the entries that follow.
One number for each entry, in %.

Consider the reported growth for these molecules:
1) CC(=O)Oc1c(Cl)cccc1-c1ccccc1 : 111
2) COC1(OC)C2(Cl)C(Cl)=C(Cl)C1(Cl)C1COCC12 (configuration not stated) : 109
3) O=C(c1cccc(C(=O)c2ccc3c4c(cccc24)C(=O)N(c2ccccc2)C3=O)c1)c1ccc2c3c(cccc13)C(=O)N(c1ccccc1)C2=O : 82.6
4) CCCCCCCCCCCCSC1=C(Cl)C(=O)C(OC)=C(OC)C1=O : 43.7

Hey, quick one: what's growth for each of these?
1. O=C(O)C1CSC(c2ccccc2)N1 (configuration not stated)
2. O=C1C=C[C@H](O)[C@@]2(CO)O[C@@H]12
3. Nc1nc2nnc(-c3ccccc3)c(-c3ccccc3)n2n1
4. CS(=O)(=O)c1ccc(/C=C\C(=O)O)cc1
5. Clc1ccc(-c2noc(/C=C\c3ccccc3)n2)cc1
6. NC(=O)c1cc2c3ccccc3ccn2c1-c1ccccc1

Marked response:
[95, 93.1, 97.2, 106, 101, 18.7]

State the recorded growth for every item in the following list.
1. COc1cc(N)c2ncccc2c1Cl
2. C=CCC(OC(C)=O)c1ccc(C(C)C)cc1 (configuration not stated)

Marked response:
104
108
